- Test system: UACC-62 melanoma
- test-description: NCI tumour cell line growth inhibition, 48 h
Each entry below carries its recorded TGI.
experimental-readout: TGI

compound: COC(=O)/C=C(C)/C=C\COC1CCCCO1 (stereo not drawn)
observed: > 100 µM
//
compound: Cc1nc2c(C)ccc([N+](=O)[O-])c2c(NCCCN(C)C)c1C
observed: > 100 µM
//
compound: COc1cc2ncn(-c3cc(OCc4ccccc4C(F)(F)F)c(C(N)=O)s3)c2cc1OC
observed: > 8.39 µM

---

List of TGI values.
- Tested on: HCT-116 colon
- test-description: NCI tumour cell line growth inhibition, 48 h
experimental-readout: TGI

compound: CCOc1ccc2nc(NC(=O)C(=O)C3C(=O)C(CC4C(=O)c5ccccc5C4=O)C(=O)CC3(C)C)sc2c1 (stereo not drawn)
observed: > 100 µM
--
compound: OCCCN=C1CCCCC1
observed: > 100 µM
--
compound: CC(C)(C)N/N=C(/Cc1nc2c3c(ccc2[nH]c1=O)C(=O)c1ccccc1C3=O)C(=O)NC1=C(Cl)C(=O)c2ccccc2C1=O
observed: > 100 µM

---

- Tested on: HT29 colon
- test-description: NCI tumour cell line growth inhibition, 48 h

molecule: CCCN1C(=O)/C(=C/c2ccc(SC(F)(F)F)cc2)SC1=Nc1ccc(OC)cc1
TGI: > 50 µM
--
molecule: NC(=S)NNCC(=O)CC(O)(C(F)(F)F)C(F)(F)Cl (centres undefined)
TGI: > 100 µM
--
molecule: COc1cc2ncn(-c3cc(OCc4ccccc4C(F)(F)F)c(C(N)=O)s3)c2cc1OC
TGI: > 25 µM
--
molecule: O=CN1CCN(c2ccc3ccc(=O)[nH]c3n2)CC1
TGI: > 100 µM

---

Measured TGI values are reported for all entries that follow.
- Test system: HCT-116 colon
- test-description: NCI tumour cell line growth inhibition, 48 h

compound: CC(C)(C)OC(=O)Cn1ncn(NC(=O)Cc2ccccc2)c1=S
TGI: > 10 µM
//
compound: C=C1C(=O)OC2CC(C)C(/C=C/C(C)=O)=CCC12 (stereo not given)
TGI: > 100 µM
//
compound: O=C(O)CN1C(=O)c2ccc(NC(=O)C(=O)O)cc2S1(=O)=O
TGI: > 100 µM
//
compound: ClC1=NSSC1(Cl)Cl
TGI: > 100 µM
//
compound: COc1ccc(-c2nsc3c2NC(=O)CC3c2ccsc2)cc1 (stereo not given)
TGI: > 100 µM

---

- Tested on: DMS 273 small cell lung
- test-description: NCI tumour cell line growth inhibition, 48 h
Listed compounds paired with reported TGI
experimental-readout: TGI

compound: CC(=O)CCC1(c2ccccc2)OC(=O)C(C#N)=C1c1ccccc1 (centres undefined)
experimental-target: DMS 273 small cell lung
experimental-readout: TGI
observed: > 100 µM

compound: Nc1nc(SCc2ccccc2Cl)c2ncn(C3OC(CO)C(O)C3O)c2n1 (centres undefined)
experimental-target: DMS 273 small cell lung
experimental-readout: TGI
observed: > 100 µM

compound: O=C1/C(=C/c2ccc(Cl)cc2)CCC1CNc1ccc(Cl)cc1 (centres undefined)
experimental-target: DMS 273 small cell lung
experimental-readout: TGI
observed: > 39.9 µM

compound: Cc1cc(N(CCC#N)CCC#N)ccc1/C=C(\NC(=O)/C=C/c1ccccc1)C(=O)Nc1ccccc1Cl
experimental-target: DMS 273 small cell lung
experimental-readout: TGI
observed: > 100 µM
